- Tested on: RPS6KA5(Kin.Dom.2-C-terminal)
- CONDITION_DETAILS: concentration: 1 μM, replicates: in singlicate; n = 1;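 note: KINOMEscan kinase panel screen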
ENDPOINT_NAME: %Inh (%)
Answer with a number only, understood to be in %.

Need %Inh, item CCCc1ccc(S(=O)(=O)NC2CCN(c3ccnc(Nc4ccc(OC)cc4)n3)C2)cc1 (stereo not drawn)
7

Data request, read-out %Inh, for O=C(Nc1ccccc1F)NC1CCN(c2ccnc(Nc3ccc(F)cc3)n2)C1 (stereo not drawn)
19

Look at this molecule and give its reported %Inh. COc1ccc(NC(=O)c2ccc(-c3cc(-c4nnc(C)o4)ccc3C)cc2)cc1
0

GET /values?readout=%Inh&item= CCc1nc(-c2cccc(C)c2)c(-c2ccnc(NC(=O)c3ccccc3)c2)s1
1

Fill blank: measured %Inh of the molecule COc1cc2ncnc(Nc3ccc(OCc4ccccc4Br)c(Cl)c3)c2cc1OC.Cl is ____.
0

Can you share its %Inh? I mean this molecule: N#Cc1ccc(Oc2ccc(Nc3ncnc4cc[nH]c34)cc2Cl)cc1
0

* * *

- Test system: PIM1
- CONDITION_DETAILS: concentration: 1 μM, replicates: in singlicate; n = 1
Provide the recorded %Inh for the entries that follow.
Provide the reading as a plain figure in %.

Recorded %Inh of Cl.Fc1ccccc1COc1ccc(Nc2ncnc3ccc(-c4nnc(C(F)(F)F)o4)cc23)cc1Cl [GW424170] , please.
0

Please give the measured %Inh for this compound: Cc1ccc(O)cc1Nc1cc(C(F)(F)F)nc2ccc(-c3ccncc3)cc12 [GW630823]
4

Could you share which %Inh value was measured for Cl.c1ccc(Cn2ccc3cc(Nc4ncnc5ccccc45)ccc32)cc1 [GW275568] ?
27

What %Inh value was documented for this compound, Fc1cccc(COc2ccc(Nc3ncnc4cc[nH]c34)cc2Cl)c1 ?
26

Would you mind telling me what %Inh value was observed for Fc1ccc(Nc2nccc(-c3c(-c4ccc(Cl)cc4)nn4ncccc34)n2)cc1F [GW829058] ?
31

Any idea what %Inh was measured for Cn1ccc2ncnc(Nc3ccc(Oc4cccc(Cl)c4)c(Cl)c3)c21 ?
8

Entry Fc1ccc(-c2ncn(CCCNCc3ccccc3)c2-c2ccncc2)cc1 : reported %Inh = ?
10

Given the entry O=C(CCO)NCCn1ccc2ncnc(Nc3ccc(Oc4cccc(C(F)(F)F)c4)c(Cl)c3)c21 , report its measured %Inh.
0

Can you look up the measured %Inh of Clc1cc(Nc2ncnc3cc[nH]c23)ccc1OCc1ccccn1 for me?
5

* * *

- Tested on: PIK3C2G
- CONDITION_DETAILS: concentration: 1 μM, replicates: in singlicate; n = 1
ENDPOINT_NAME: %Inh (%)
Numbers only here, please. The scale is %.

Field request: %Inh | item: O=C(Nc1n[nH]c2nc(-c3ccco3)c(Br)cc12)c1ccc(CN2CCCC2)cc1.O=C(O)[C@H](O)[C@@H](O)C(=O)O [SB-742352]
0

Quick one: %Inh of CS(=O)(=O)CCNCc1nc(-c2ccc3ncnc(Nc4ccc(OCc5cccc(F)c5)c(Cl)c4)c3c2)cs1.Cl [GW583340] ?
0

For the compound CN1CCC(n2cnc(-c3ccc(F)cc3)c2-c2ccnc(NC3CCNCC3)n2)CC1 [SB-229482] , what %Inh is on record?
0

Need %Inh of Cl.c1ccc(Cn2ncc3cc(Nc4ncnc5ccccc45)ccc32)cc1 [GW273749] , thanks.
0

Query (compound): Cc1ccc(NC(=O)c2cccc(C#N)c2)cc1-c1ccc(C(=O)Nc2ccncc2)cc1 [GSK1398463] ; field requested: %Inh
4

Item Clc1cc(Nc2ncnc3cc[nH]c23)ccc1OCc1ccccn1 has what recorded %Inh?
43

What measured %Inh goes with COc1cc2c(Nc3cccc(NC(=O)c4ccccc4)c3)ncnc2cc1OCCCN1CCOCC1 [GSK223810] ?
0

Consider the compound N#Cc1ccc(Oc2ccc(Nc3ncnc4cc[nH]c34)cc2Cl)cc1 and give its measured %Inh.
28

Reported %Inh for Cn1cc(-c2ccc3c(c2)CCN3C(=O)Cc2cccc(C(F)(F)F)c2)c2c(N)ncnc21 [GSK2606414] : what is it?
2

Suppose we examine the compound Nc1nc(-c2cccnc2)c(-c2ccnc3ccccc23)s1 [GW684083] ; what %Inh value has been reported?
0

Look up %Inh: CCC(CC)(CC)n1cnc2c(N)ncnc21 [SKF-97620]
9

# query: %Inh of entry OCCOCCn1ccc2ncnc(Nc3ccc(Oc4cccc(Cl)c4)c(Cl)c3)c21
0

# query: %Inh of entry O=c1cc(N2CCOCC2)nc2n(Cc3cccc(Cl)c3)ccn12 [GSK2296823]
0

// %Inh lookup, key: Cn1ccc2ncnc(Nc3ccc(Oc4cccc(Cl)c4)c(Cl)c3)c21
28

Item under review: CCn1c(-c2ccncc2)nc2cnccc21 [SB-735216] . Reported %Inh?
0

Please report the recorded %Inh for CSc1nn2c(=O)cc(N3CCOCC3)nc2n1Cc1cccc(Cl)c1Cl [GSK2347225] .
33

Name the recorded %Inh for Cc1cccc(-c2nc(Nc3ccc4[nH]nnc4c3)c3ccccc3n2)n1 [GW867587] .
0

Requested read-out: %Inh. Entry: C[C@H]1CC[C@@H](C(=O)Nc2ccccc2)CN1c1cc(-c2ccc3c(N)n[nH]c3c2)nc(N)n1 [GSK2283293]
0

I have this compound here, Cl.O=S(=O)(c1cccc(F)c1)c1ccc(Nc2ncnc3cc(Br)sc23)cc1Cl [GSK306886] , and I need its recorded %Inh.
0

Look at this compound and give its reported %Inh. COc1ccc(NC(=O)Nc2ccc(C)c(-c3ccc(C(=O)Nc4ccncc4)cc3)c2)cc1 [GSK1398475]
0

I have this compound here, COc1ccc(Nc2nccc(N3CCC(NC(=O)c4cccc(NC(C)=O)c4)C3)n2)cc1 (stereo not drawn) [GSK1379732] , and I need its recorded %Inh.
0

Reported %Inh, compound O=C(Nc1ccccc1)Nc1ccc(Oc2ccc3nccn3n2)cc1 : ____
0

Look at this compound and give its reported %Inh. O=C(CCO)NCCn1ccc2ncnc(Nc3ccc(Oc4cccc(C(F)(F)F)c4)c(Cl)c3)c21
0

I have this compound here, COC(=O)c1c(-c2ccccc2)c2cc(Cl)ccc2c(=O)n1Cc1ccc(S(C)(=O)=O)cc1 , and I need its recorded %Inh.
24

* * *

- Test system: JAK2(JH1domain-catalytic)
- CONDITION_DETAILS: concentration: 1 μM, replicates: in singlicate; n = 1
ENDPOINT_NAME: %Inh (%)
Give your result in % as a bare value.

Fill in the blank: the reported %Inh of Nc1nccc2scc(-c3ccc4c(c3)CCN4C(=O)Cc3cc(F)ccc3F)c12 is ____.
0

Please give the measured %Inh for this molecule: CCCc1ccc(S(=O)(=O)NC2CCN(c3ccnc(Nc4ccc(OC)cc4)n3)C2)cc1 (stereo not drawn)
73

Could you tell me which %Inh is on file for COc1ccc(NC(=O)c2ccc(-c3cc(-c4nnc(C)o4)ccc3C)cc2)cc1 ?
12

Consider the molecule O=C(NCCCN1CCCC1=O)c1cnc(NCc2cc(Cl)ccc2Cl)nc1NC1CCNCC1 and give its measured %Inh.
33

Request the reported %Inh associated with C[C@@H]1CCN(C(=O)CO)C[C@@H]1N(C)c1ncnc2[nH]ccc12
100

Given the molecule Clc1cccc(-c2nc(Nc3ccncc3)c3ccccc3n2)c1 , what is its reported %Inh?
0

What value of measured %Inh is listed for Nc1nc(-c2ccccn2)c(-c2ccnc3ccccc23)s1 ?
22

Value lookup for %Inh; key = Cc1cc(N2CCC(NS(=O)(=O)c3ccc(F)cc3)CC2)nc(Nc2cccc(C#N)c2)n1.O=C(O)C(F)(F)F
6

I am curious: what %Inh value has been reported for O=C(Nc1ccccc1)Nc1ccc(Oc2ccc3nccn3n2)cc1 ?
8

Need %Inh, item OCCOCCn1ccc2ncnc(Nc3ccc(Oc4cccc(Cl)c4)c(Cl)c3)c21
0

For the molecule shown here, Cl.Fc1ccccc1COc1ccc(Nc2ncnc3ccc(-c4nnc(C(F)(F)F)o4)cc23)cc1Cl , give the reported %Inh.
6

Returns the measured %Inh for the input molecule. Input: CCc1nc(-c2cccc(N(C)S(=O)(=O)c3ccccc3)c2)c(-c2ccnc(Nc3ccc(N4CCN(C(C)=O)CC4)nc3)n2)s1
0

Param item = CCc1nc(-c2cccc(C)c2)c(-c2ccnc(NC(=O)c3ccccc3)c2)s1 ; retrieve measured %Inh.
19

For COc1ccc(-c2oc3ncnc(N)c3c2-c2ccc(OC)cc2)cc1 , what is its reported %Inh?
1

Recorded %Inh for Cl.c1ccc(Cn2ccc3cc(Nc4ncnc5ccccc45)ccc32)cc1 , please?
100

Please look up its %Inh: CN1CCC(n2cnc(-c3ccc(F)cc3)c2-c2ccnc(NC3CCNCC3)n2)CC1
18

Param item = c1ccc(-c2ccc3c(-c4ccnc(Nc5ccc6c(c5)OCCO6)n4)cnn3n2)cc1 ; retrieve measured %Inh.
11

Given the entry FC(F)(F)c1ccc(-c2cc(-c3c[nH]nc3-c3ccccn3)ccn2)cc1 , report its measured %Inh.
14
